Recorded values, source patent US20230233569A1.

Listed here are compounds together with their documented pIC50.
# STUDY SYSTEM: KRAS G12D (Homo sapiens, UniProt P01116+P62937, G12D)
# Sequence (P01116 1-169 isoform P01116-2 G12D limits assumed, one chain of several): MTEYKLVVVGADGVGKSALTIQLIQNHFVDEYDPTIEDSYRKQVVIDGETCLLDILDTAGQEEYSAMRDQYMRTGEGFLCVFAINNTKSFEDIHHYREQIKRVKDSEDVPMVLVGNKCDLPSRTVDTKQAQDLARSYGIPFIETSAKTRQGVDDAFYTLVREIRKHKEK
# METHOD DESCRIPTION: Disruption of BRAF RBD interaction with Ras (FRET / MOA assay, with Cyclophilin A)
# Type: biochemical
# MEASUREMENT PARAMETERS: read-out: KRAS G12D FRET data, IC50
pIC50: −log10 of the molar value.

CCn1c(-c2cnccc2COC)c2c3cc(ccc31)-c1cc(O)cc(c1)C[C@H](NC(=O)[C@H](C(C)C)N(C)C(=O)C1C[C@@H]1C)C(=O)N1CCC[C@H](N1)C(=O)OCC(C)(C)C2 (some centres unmarked) : 5.00 to 6.00
CCn1c(-c2cc(C3CCN(C)CC3)cnc2[C@H](C)OC)c2c3cc(ccc31)-c1csc(n1)C[C@H](NC(=O)[C@H](C(C)C)N(C)C(=O)N1CC(C3COC3)C1)C(=O)N1CCC[C@H](N1)C(=O)OCC(C)(C)C2 : 6.00 to 7.00

IN: Query pIC50 on KRAS G12D (Homo sapiens, UniProt P01116+P62937, G12D) for CCn1c(-c2cccnc2[C@H](C)OC)c2c3cc(ccc31)-c1csc(n1)C[C@H](NC(=O)[C@H](C(C)C)N(C)C(=O)N1CC(OC)C1)C(=O)N1CC[C@H](C)[C@H](N1)C(=O)OCC(C)(C)C2
OUT: 5.00 to 6.00

IN: And what about the compound C=CC(=O)N1CC[C@]2(C1)OCN(C(=O)N(C)[C@H](C(=O)N[C@H]1Cc3cccc(n3)-c3ccc4c(c3)c(c(-c3cccnc3[C@H](C)OC)n4CC)CC(C)(C)COC(=O)[C@@H]3CCCN(N3)C1=O)C(C)C)C2=O (atropisomer, axis not shown) ?
OUT: < 5.00

IN: Now consider C=CC(=O)N1CC[C@H](C(=O)N(C)[C@H](C(=O)N[C@H]2Cc3nc(cs3)-c3ccc4c(c3)c(c(-c3cccnc3COC)n4CC)CC(C)(C)COC(=O)[C@@H]3CCCN(N3)C2=O)C(C)C)C1 and answer again.
OUT: < 5.00

* * *

pIC50 values, listed per item
# STUDY SYSTEM: KRAS G13C (Homo sapiens, UniProt P01116+P62937, G13C)
# Sequence (P01116 1-169 isoform P01116-2 G13C): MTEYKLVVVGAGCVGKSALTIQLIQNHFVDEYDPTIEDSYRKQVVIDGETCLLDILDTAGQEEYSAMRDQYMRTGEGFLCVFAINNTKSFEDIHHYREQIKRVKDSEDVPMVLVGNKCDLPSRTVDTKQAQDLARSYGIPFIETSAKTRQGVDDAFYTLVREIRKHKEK
# Sequence (P62937 whole entry): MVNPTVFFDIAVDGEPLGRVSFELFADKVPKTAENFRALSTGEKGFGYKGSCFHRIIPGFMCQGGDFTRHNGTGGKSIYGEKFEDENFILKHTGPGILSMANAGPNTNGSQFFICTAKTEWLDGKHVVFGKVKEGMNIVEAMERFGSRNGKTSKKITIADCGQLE
# METHOD DESCRIPTION: Disruption of BRAF RBD interaction with Ras (FRET / MOA assay, with Cyclophilin A)
# Type: biochemical
# MEASUREMENT PARAMETERS: KRAS G13C; read-out: KRAS G13C FRET data IC50
pIC50: −log10 of the molar value.

CCn1c(-c2cccnc2COC)c2c3cc(ccc31)-c1cc(O)cc(c1)C[C@H](NC(=O)[C@H](C(C)C)N(C)C(=O)[C@H]1CCN(C(=O)/C=C/CN3CCN(C)CC3)C1)C(=O)N1CCC[C@H](N1)C(=O)OCC(C)(C)C2 [Example A072] : 6.00 to 7.00

IN: # lookup: pIC50 of C=CC(=O)N1CC(OC[C@H](C(=O)N[C@H]2Cc3cccc(c3)-c3ccc4c(c3)c(c(-c3cccnc3[C@H](C)OC)n4CC(F)(F)F)CC(C)(C)COC(=O)[C@@H]3CCCN(N3)C2=O)C(C)C)C1 [Example A453]
OUT: < 5.00

IN: Further, for C=CC(=O)N1CCOC2(CCN(C(=O)N(C)[C@H](C(=O)N[C@H]3Cc4cccc(c4)-c4ccc5c(c4)c(c(-c4cccnc4[C@H](C)OC)n5CC(F)(F)F)CC(C)(C)COC(=O)C4CCCN(N4)C3=O)C(C)C)CC2)C1 (stereo partly drawn) [Example A608] ?
OUT: 7.00 to 8.00

IN: // repeat for C=CC(=O)N1CC[C@H](C(=O)N(C)[C@H](C(=O)N[C@H]2Cc3cc(O)cc(c3)-c3cnc4c(c3)c(c(-c3ccccc3CCOC)n4CC)CC(C)(C)COC(=O)[C@@H]3CCCN(N3)C2=O)C(C)C)C1 [Example A210] and report
OUT: < 5.00

IN: What about C=CS(=O)(=O)N1CC[C@H](C(=O)N(C)[C@H](C(=O)N[C@H]2Cc3nc(cs3)-c3ccc4c(c3)c(c(-c3cncnc3)n4CC)CC(C)(C)COC(=O)[C@@H]3CCCN(N3)C2=O)C(C)C)C1 [Example A170] ?
OUT: 5.00 to 6.00

IN: Quick one: C=CC(=O)N1CC[C@H](C(=O)N(C)[C@H](C(=O)N[C@H]2Cc3cc(O)cc(c3)-c3ccc4c(c3)c(c(-c3cncnc3)n4CC)CC(C)(C)COC(=O)[C@@H]3CCCN(N3)C2=O)C(C)C)C1 [Example A061]
OUT: 5.00 to 6.00

IN: And what about the compound C=CC(=O)N1CC[C@H](C(=O)N(C)[C@H](C(=O)N[C@H]2Cc3cc(O)cc(c3)-c3ccc4c(c3)c(c(-c3cnccc3COC)n4CC)CC(C)(C)COC(=O)[C@@H]3CCCN(N3)C2=O)C(C)C)C1 [Examples A028] ?
OUT: 6.00 to 7.00

IN: Please do the same for C=CC(=O)N1CC[C@H](C(=O)N(C)[C@H](C(=O)N[C@H]2Cc3cc(O)cc(c3)-c3ccc4c(c3)c(c(-c3cccnc3[C@H](C)OC)n4C)CC(C)(C)COC(=O)[C@@H]3CCCN(N3)C2=O)C(C)C)C1 [Example A197] as well.
OUT: 5.00 to 6.00

IN: Same for C=CC(=O)N1CC[C@H](C(=O)N(C)[C@H](C(=O)N[C@H]2Cc3cc(O)cc(c3)-c3ccc4c(c3)c(c(-c3cnccc3[C@H](C)OC)n4CC)CC(C)(C)COC(=O)[C@@H]3CCCN(N3)C2=O)C(C)C)C1 [Example A076]
OUT: 7.00 to 8.00

* * *

Listing: pIC50 of selected compounds
# STUDY SYSTEM: NRAS Q61R (Homo sapiens, UniProt P01111+P62937, Q61R)
# Sequence (P01111 whole entry Q61R, one chain of several): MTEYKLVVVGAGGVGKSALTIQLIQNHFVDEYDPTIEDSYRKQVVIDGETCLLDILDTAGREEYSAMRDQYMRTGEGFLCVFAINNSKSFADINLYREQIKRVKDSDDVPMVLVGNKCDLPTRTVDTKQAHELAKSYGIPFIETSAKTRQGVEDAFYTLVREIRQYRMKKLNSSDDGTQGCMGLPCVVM
# METHOD DESCRIPTION: Ras-Raf disruption / FRET / MOA assay (BRAF RBD)
# Format: biochemical
# MEASUREMENT PARAMETERS: NRAS Q61R; read-out: NRAS Q61R FRET data IC50
pIC50: −log10 of the molar value.

CCn1c(-c2cccnc2[C@H](C)OC)c2c3cc(ccc31)-c1cc(O)cc(c1)C[C@H](NC(=O)[C@H](C(C)C)N(C)C(=O)[C@@H]1CCN(C(=O)[C@H]3CN3)C1)C(=O)N1CCC[C@H](N1)C(=O)OCC(C)(C)C2 (atropisomer, axis not shown) : 6.00 to 7.00

IN: Look up pIC50: CCn1c(-c2cccnc2[C@H](C)OC)c2c3cc(ccc31)-c1csc(n1)C[C@H](NC(=O)[C@H](C(C)C)N(C)C(=O)N(C)CC1CN(C(=O)[C@H]3CN3)C1)C(=O)N1CCC[C@H](N1)C(=O)OCC(C)(C)C2 (atropisomer, axis not shown)
OUT: 6.00 to 7.00

IN: Query CCn1c(-c2cccnc2[C@H](C)OC)c2c3cc(ccc31)-c1cccc(c1)C[C@H](NC(=O)[C@H](C1CCCC1)N1CC[C@]3(CCN(C(=O)[C@@H]4N[C@@H]4C4CC4)C3)C1=O)C(=O)N1CCC[C@H](N1)C(=O)OCC(C)(C)C2 next
OUT: 5.00 to 6.00

IN: Would you kindly repeat that for CCn1c(-c2cccnc2[C@H](C)OC)c2c3cc(ccc31)-c1csc(n1)C[C@H](NC(=O)[C@H](C(C)C)N(C)C(=O)N1CCC(CN(C)C(=O)[C@H]3CN3)CC1)C(=O)N1CCC[C@H](N1)C(=O)OCC(C)(C)C2 (atropisomer, axis not shown) ?
OUT: 7.00 to 8.00

* * *

# STUDY SYSTEM: NRAS Q61K (Homo sapiens, UniProt P01111+P62937, Q61K)
# Sequence (P01111 whole entry Q61K, one chain of several): as the sequence (P01111 whole entry Q61R, one chain of several) above, with R61K counted along it
# METHOD DESCRIPTION: Ras-Raf disruption / FRET / MOA assay (BRAF RBD)
# Type: biochemical
pIC50: −log10 of the molar value.
MEASURE: pIC50

Past entries and their recorded results:
CCn1c(-c2cccnc2[C@H](C)OC)c2c3cc(ccc31)-c1cc(O)cc(c1)C[C@H](NC(=O)[C@H](C1CCCC1)N(C)C(=O)CN(C)C(=O)[C@@H]1N[C@@H]1C1(OC)CC1)C(=O)N1CCC[C@H](N1)C(=O)OCC(C)(C)C2 (single isomer, unassigned) : 6.00 to 7.00
CCn1c(-c2cccnc2[C@H](C)OC)c2c3cc(ccc31)-c1cc(O)cc(c1)C[C@H](NC(=O)[C@H](C(C)C)N1CC[C@H](NC(=O)[C@H]3CN3)C1=O)C(=O)N1CCC[C@H](N1)C(=O)OCC(C)(C)C2 : 6.00 to 7.00
CCN1C[C@@H]1C(=O)N(C)CC(=O)N(C)[C@H](C(=O)N[C@H]1Cc2cc(O)cc(c2)-c2ccc3c(c2)c(c(-c2cccnc2[C@H](C)OC)n3CC)CC(C)(C)COC(=O)[C@@H]2CCCN(N2)C1=O)C1CCCC1 (stereo partly shown) : 6.00 to 7.00

IN: Request the reported pIC50 associated with CCn1c(-c2cccnc2[C@H](C)OC)c2c3cc(ccc31)-c1cc(O)cc(c1)C[C@H](NC(=O)[C@H](C1CCCC1)N(C)C(=O)[C@@H](C)N(C)C(=O)[C@@H]1N[C@@H]1C1CC1)C(=O)N1CCC[C@H](N1)C(=O)OCC(C)(C)C2
OUT: < 5.00
